experiment: Pharmacokinetic Study on Silodosin (Study 98364); assay type: in vivo; details: male, human, plasma, 4 mg, 4 mg once daily 7 days, Day 7, 3 h, mean; read-out: Blood Plasma Concentrations
OUTCOME MEASURE: concentration at 3 h (ng/mL)
Output spec: scalar in ng/mL, unitless text.

### Prompt Reported concentration at 3 h for C[C@H](Cc1cc2c(c(C(N)=O)c1)N(CCCO)CC2)NCCOc1ccccc1OCC(F)(F)F [Silodosin] : what is it?
### Response 18.4

###

Assay: Pharmacokinetic Study on Silodosin (Study 98364)
Format: in vivo
Conditions: male, human, plasma, 4 mg, 4 mg twice daily 7 days (simulated from Table 1a), Day 7, 4 h; read-out: Estimated Blood Plasma Concentrations
Excerpt: The remaining two subjects in each dosing cohort received placebo.
OUTCOME MEASURE: concentration at 4 h (ng/mL)
Express the result in ng/mL but write the number alone.

### Prompt Consider the compound C[C@H](Cc1cc2c(c(C(N)=O)c1)N(CCCO)CC2)NCCOc1ccccc1OCC(F)(F)F and give its measured concentration at 4 h.
### Response 13
